# Test system: Fibroblast
# assay name: Incucyte cell viability with human fibroblast; further: unitless GR value; below 1 slowed growth and below 0 cell loss
# Assay type: toxicity, cell-based
# details: 24 h, 10 µM, compound concentration 10 uM, replicate number 1
Peptide text beside a SMILES is read from it.
I'd appreciate it if you could supply Growth Rate values for the items below.
Answer field: number only, no words.

Param readout = Growth Rate; param system = Fibroblast; param query = Cc1cc(C)c(CNC(=O)c2cc(-c3ccc(N4CCN(C)CC4)nc3)cc3c2c(C)cn3C(C)C)c(=O)[nH]1 ; response: value 1

Try the molecule O=C(COc1ccc(-c2oc3cc(O)c(C(=O)O)cc3c2C#Cc2cccc(Cl)c2)cc1)NC1CC1 0.84

Try the molecule O=C(NCCc1cc(C(=O)NO)no1)c1ccc(Cl)c(Cl)c1 1

Try the molecule CC/C(=C(/CC)c1ccc(O)cc1)c1ccc(O)cc1 0.45

Try the molecule COC[C@H](NC(=O)c1ccn(S(C)(=O)=O)c1)C(=O)Nc1nc(-c2cccc(-c3ccn(C)n3)c2)cs1 0.89

Try the molecule O=C(NO)c1cnc(NC2(c3ccccc3)CC2)nc1 -0.29

Try the molecule CC(=O)N[C@@H](CC(C)C)C(=O)N[C@@H](CCC(=O)O)C(=O)N[C@@H](Cc1cnc[nH]1)C(=O)N[C@H](C=O)CC(=O)O.O=C(O)C(F)(F)F (Ac-LEHD-aldehyde) 1

Try the molecule Nc1ncnc2c1ncn2[C@@H]1O[C@H](C[C@@H](N)CC[C@H](N)C(=O)O)[C@@H](O)[C@H]1O 0.66

Try the molecule CCn1c(=O)c(C)cn(Cc2nnc(-c3ccc(F)c(O)c3F)s2)c1=O 0.03
